# target.of.assay: 5-hydroxytryptamine receptor 7 (Homo sapiens, UniProt P34969)
# Sequence (P34969 whole entry): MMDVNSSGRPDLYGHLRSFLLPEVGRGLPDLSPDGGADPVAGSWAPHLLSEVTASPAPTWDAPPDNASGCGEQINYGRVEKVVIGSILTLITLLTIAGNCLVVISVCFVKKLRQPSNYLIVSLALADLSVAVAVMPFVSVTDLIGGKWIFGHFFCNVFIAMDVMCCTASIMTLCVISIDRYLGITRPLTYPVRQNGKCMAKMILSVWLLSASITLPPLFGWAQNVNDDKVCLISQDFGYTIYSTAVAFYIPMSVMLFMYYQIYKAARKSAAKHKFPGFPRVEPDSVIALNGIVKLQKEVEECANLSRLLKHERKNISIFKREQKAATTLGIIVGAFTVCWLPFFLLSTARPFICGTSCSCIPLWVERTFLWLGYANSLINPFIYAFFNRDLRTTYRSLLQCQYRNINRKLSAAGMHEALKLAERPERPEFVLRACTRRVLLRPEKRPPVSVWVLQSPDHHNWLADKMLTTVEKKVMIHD
parameter: Ki (nM)
Number in nM, nothing else.

Task item: Quote Ki with test system 5-hydroxytryptamine receptor 7 (Homo sapiens, UniProt P34969) for `CC1=NC2(CCN(C)CC2)C(=O)N(c2c(C)cccc2C)C1=O`
Reply: 2760

* * *

# target.of.assay: Alpha-2A adrenergic receptor (Homo sapiens, UniProt P08913)
# Sequence (P08913 whole entry): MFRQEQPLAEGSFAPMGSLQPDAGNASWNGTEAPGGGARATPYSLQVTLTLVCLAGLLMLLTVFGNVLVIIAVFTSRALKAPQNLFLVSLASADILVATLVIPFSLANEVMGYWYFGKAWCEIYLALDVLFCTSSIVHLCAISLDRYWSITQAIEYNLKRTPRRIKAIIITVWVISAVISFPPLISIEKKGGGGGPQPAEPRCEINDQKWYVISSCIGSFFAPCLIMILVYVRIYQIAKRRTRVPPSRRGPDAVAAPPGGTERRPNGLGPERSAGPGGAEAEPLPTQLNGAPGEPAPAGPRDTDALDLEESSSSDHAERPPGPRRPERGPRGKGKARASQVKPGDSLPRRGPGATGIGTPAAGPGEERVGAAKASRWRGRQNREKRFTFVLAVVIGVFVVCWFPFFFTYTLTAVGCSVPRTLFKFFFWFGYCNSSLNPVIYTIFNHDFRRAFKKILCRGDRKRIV
parameter: Ki (µM)
Dear colleague, please return just the value in µM, with no unit written.

Task item: Give recorded Ki. `CC1=NC2(CCN(C)CC2)C(=O)N(c2c(C)cccc2C)C1=O`
Reply: 3.36

* * *

Below are Ki values recorded for 5-hydroxytryptamine receptor 2B (Homo sapiens).
Please answer in the form of a number followed by its unit of measurement.

Cc1cccc(C)c1N1C(=O)[C@H](CC2CNc3ccccc32)NC2(CCN(C)CC2)C1=O (some centres undefined) :: 840 nM
Cc1cccc(C)c1N1C(=O)[C@H](CO)NC2(CCN(C)CC2)C1=O :: 2050 nM
Cc1cccc(C)c1N1C(=O)CNC2(CCN(C)CC2)C1=O :: 742 nM

// switching to the query molecule
Task item: Lab note: 5-hydroxytryptamine receptor 2B (Homo sapiens) assay, enter Ki for `CC1=NC2(CCN(C)CC2)C(=O)N(c2c(C)cccc2C)C1=O` here
Reply: 231 nM

* * *

# target.of.assay: Sodium-dependent dopamine transporter (Homo sapiens, UniProt Q01959)
# Sequence (Q01959 whole entry): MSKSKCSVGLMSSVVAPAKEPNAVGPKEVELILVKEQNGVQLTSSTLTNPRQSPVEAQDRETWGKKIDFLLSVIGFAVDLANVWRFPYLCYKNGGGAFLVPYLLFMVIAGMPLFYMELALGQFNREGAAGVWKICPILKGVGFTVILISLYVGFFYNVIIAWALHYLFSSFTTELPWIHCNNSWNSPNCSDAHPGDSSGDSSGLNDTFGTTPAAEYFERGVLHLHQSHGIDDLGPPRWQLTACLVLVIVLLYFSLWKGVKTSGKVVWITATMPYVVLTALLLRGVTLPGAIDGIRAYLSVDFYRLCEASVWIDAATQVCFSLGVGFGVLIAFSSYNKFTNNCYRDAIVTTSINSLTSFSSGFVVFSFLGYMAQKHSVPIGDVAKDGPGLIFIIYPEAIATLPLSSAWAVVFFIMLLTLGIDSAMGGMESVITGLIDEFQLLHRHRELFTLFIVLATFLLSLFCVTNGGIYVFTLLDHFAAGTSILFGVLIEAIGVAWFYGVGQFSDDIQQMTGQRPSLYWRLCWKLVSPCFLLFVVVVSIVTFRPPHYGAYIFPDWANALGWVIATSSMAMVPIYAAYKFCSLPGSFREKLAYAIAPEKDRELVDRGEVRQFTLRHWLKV
parameter: Ki (nM)
Use nM as the unit, but write only the number.

Task item: Lab note: record Ki of `CC1=NC2(CCN(C)CC2)C(=O)N(c2c(C)cccc2C)C1=O` tested on Sodium-dependent dopamine transporter (Homo sapiens, UniProt Q01959).
Reply: 2560

* * *

# target.of.assay: Kappa-type opioid receptor (Homo sapiens, UniProt P41145)
# Sequence (P41145 whole entry): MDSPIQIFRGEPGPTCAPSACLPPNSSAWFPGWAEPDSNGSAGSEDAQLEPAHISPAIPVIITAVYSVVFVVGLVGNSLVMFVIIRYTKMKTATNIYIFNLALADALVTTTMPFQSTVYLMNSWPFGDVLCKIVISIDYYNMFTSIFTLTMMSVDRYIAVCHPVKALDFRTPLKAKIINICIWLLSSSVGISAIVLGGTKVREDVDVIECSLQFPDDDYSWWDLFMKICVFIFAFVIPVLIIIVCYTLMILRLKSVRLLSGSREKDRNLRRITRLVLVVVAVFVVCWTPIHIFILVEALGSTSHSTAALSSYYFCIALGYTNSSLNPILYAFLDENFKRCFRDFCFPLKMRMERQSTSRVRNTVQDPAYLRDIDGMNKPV
parameter: pKi
As a rule, pKi stands for the negative log10 of the concentration, concentration in M.

Task item: Write down measured pKi (Kappa-type opioid receptor (Homo sapiens, UniProt P41145)) for this compound. `CC1=NC2(CCN(C)CC2)C(=O)N(c2c(C)cccc2C)C1=O`
Reply: 5.77

* * *

# target.of.assay: Sigma non-opioid intracellular receptor 1 (Cavia porcellus, UniProt Q60492)
# Sequence (Q60492 whole entry): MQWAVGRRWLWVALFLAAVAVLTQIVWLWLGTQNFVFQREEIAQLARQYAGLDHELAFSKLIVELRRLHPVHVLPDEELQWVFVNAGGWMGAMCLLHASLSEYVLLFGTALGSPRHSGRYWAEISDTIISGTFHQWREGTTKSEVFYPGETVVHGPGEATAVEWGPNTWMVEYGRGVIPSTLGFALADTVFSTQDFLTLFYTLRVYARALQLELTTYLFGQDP
# assay.notes: Displacement of [3H]Pentazocine from guinea pig sigma-1 receptor by radioligand binding assay
parameter: pKi
The read-out pKi is expressed as -log10 of concentration in moles per litre.

Task item: Output reported pKi of the compound `CC1=NC2(CCN(C)CC2)C(=O)N(c2c(C)cccc2C)C1=O` on Sigma non-opioid intracellular receptor 1 (Cavia porcellus, UniProt Q60492).
Reply: 8.07

Value source: ChEMBL document CHEMBL4422623
